Target: T1, BMP2/6 heterodimer (UniProt P12643 283-396; P22004 375-513)
T1 construct: bone morphogenetic protein 2 chain of the BMP2/6 heterodimer; bone morphogenetic protein 6 chain of the BMP2/6 heterodimer; also called heterodimer of BMP2/6; source: bought: RND Systems #7145-BP-010/CF; copies: 1 + 1
T1 sequence (P12643 283-396, chain 1 of 2): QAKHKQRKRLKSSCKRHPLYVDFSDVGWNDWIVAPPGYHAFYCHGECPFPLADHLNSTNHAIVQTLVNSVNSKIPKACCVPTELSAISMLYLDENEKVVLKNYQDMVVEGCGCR
T1 sequence (P22004 375-513, chain 2 of 2): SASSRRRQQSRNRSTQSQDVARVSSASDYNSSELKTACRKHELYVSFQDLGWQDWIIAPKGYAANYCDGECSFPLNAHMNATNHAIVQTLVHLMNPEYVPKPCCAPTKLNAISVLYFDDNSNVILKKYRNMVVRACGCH
Assay: SPR; Biacore T200, CM5 chip; BMP2, BMP6 or BMP2/6 immobilised by amine coupling (50 μg/ml); purified bacterial untagged ERFE N-terminal variants or synthetic 53-mer segments as analyte; HBS-EP pH 7.4, 50 μl/min; KD = koff/kon at five concentrations
Conditions: both partners purified
measurement.label: pKd
Interpret pKd as the negative base-10 log of the concentration measured in mol/L.

Measured pKd, ERFE N terminus ΔCollagen, 43-148 del109-125 (bacterial) (domain or fragment, human, UniProt Q4G0M1 43-148, looked up, also called bacterial ΔCollagen N terminus; source: E. coli Rosetta2(DE3)pLysS, purified (Ni-NTA, TEV cleavage, reverse IMAC); not shown: His6, N-terminal, cleaved; MBP, N-terminal, cleaved) EPPPGNELPRGPGESRAGPAARPPEPTAERAHSVDPRDAWMLFVRQSDKGVNGKKRSRGKAKKLKFIIPPEALLKEFQLLLKGAVRQRE : 7.30
